Tested on: LG0567-F671-PDC KRAS tumor spheroid viability;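 note: drug exposure lasted seven days after spheroids formed for three days; 100% = DMSO vehicle control viability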
Experiment: Anticancer human tumor LG0567-F671-PDC patient-derived lung adenocarcinoma cell line growth inhibition [KRAS2]
Settings: second compound 3.16 µM; first compound 0.00316 µM; active compounds read low; spheroids with HUVEC and MSC
From the text: Multicellular complex tumor spheroid response to RAS pathway inhibitors in combination with a targeted agents in patient-derived cell lines with oncogenic KRAS variants from multiple cancer types A high-throughput screen of multi-cell type tumor spheroids was designed to identify active combinations of targeted small molecules and KRAS pathway inhibitors. […] Compounds. […] If the clinical Cmax for an agent had not been determined, the highest concentration tested was 10 microM. […]
quantity kind: viability, T/C (%)
Only the number, expressed in %, is required.

Noted for CC(=O)Nc1cccc(-n2c(=O)n(C3CC3)c(=O)c3c(Nc4ccc(I)cc4F)n(C)c(=O)c(C)c32)c1 + CNCc1ccccc1-c1csc(C(C)Nc2nc(C)nc3cc(OC)c(OC)cc23)c1 : its viability, T/C reads 0.57

Further cases:
Noted for Cn1ncnc1[C@H]1c2n[nH]c(=O)c3cc(F)cc(c23)N[C@@H]1c1ccc(F)cc1 + CNCc1ccccc1-c1csc(C(C)Nc2nc(C)nc3cc(OC)c(OC)cc23)c1 : its viability, T/C reads 0.17

Noted for CN(C)C/C=C/C(=O)Nc1cc2c(Nc3ccc(F)c(Cl)c3)ncnc2cc1O[C@H]1CCOC1 + C=CC(=O)N1CCN(c2nc(OCC3CCCN3C)nc3c2CCN(c2cccc4cccc(C)c24)C3)CC1CC#N : its viability, T/C reads 15.7

Noted for CN(C)C/C=C/C(=O)Nc1cc2c(Nc3ccc(F)c(Cl)c3)ncnc2cc1O[C@H]1CCOC1 + C=CC(=O)N1CCN(c2nc(=O)n(-c3c(C)ccnc3C(C)C)c3nc(-c4c(O)cccc4F)c(F)cc23)C(C)C1 : its viability, T/C reads 26.1

Noted for CC(=O)Nc1cccc(-n2c(=O)n(C3CC3)c(=O)c3c(Nc4ccc(I)cc4F)n(C)c(=O)c(C)c32)c1 + C=CC(=O)N1CCN(c2nc(=O)n(-c3c(C)ccnc3C(C)C)c3nc(-c4c(O)cccc4F)c(F)cc23)C(C)C1 : its viability, T/C reads 10.5
